Hello, the source for this data is paper PMC12724200, in case you need it.

test system: MRC-5; conditions: human
Here the recorded LC50/MIC is given for each entry.

[
  {
    "structure-notation": "CO[C@H]1/C=C/O[C@@]2(C)Oc3c(C)c(O)c4c(O)c(c(/C=N/N5CCN(C)CC5)c(O)c4c3C2=O)NC(=O)/C(C)=C\\C=C\\[C@H](C)[C@H](O)[C@@H](C)[C@@H](O)[C@@H](C)[C@H](OC(C)=O)[C@@H]1C",
    "measurement-target": "MRC-5",
    "LC50/MIC": "16,250"
  },
  {
    "structure-notation": "[H]/N=C(/N)N[C@H]1[C@H](O)[C@@H](O)[C@H](O[C@@H]2O[C@@H](C)[C@](O)(C=O)[C@H]2O[C@@H]2O[C@@H](CO)[C@H](O)[C@@H](O)[C@@H]2NC)[C@@H](N/C(N)=N\\[H])[C@@H]1O",
    "measurement-target": "MRC-5",
    "LC50/MIC": "4,175"
  },
  {
    "structure-notation": "NNC(=O)c1ccncc1",
    "measurement-target": "MRC-5",
    "LC50/MIC": "7,325"
  }
]
